Below, each entry is listed alongside its reported IC50.
- Test system: MS751 cells
- test.protocol: MTT cell proliferation assay, MS751 cells
- Type: cell-based, human
- measurement.setup: Homo sapiens, incubation approximately 64-72 hours, read-out: MTT Assay IC50, MS 751

>>> print(df.to_string())
                                   molecule           result
0  Nc1ccc(/C=C/C(=O)NCc2nnc(-c3ccc(-c4ccc(C(=O)N5CCC(F)(F)CC5)cc4)cc3-c3ccc(F)cc3)o2)cn1        < 1000 nM
1  Nc1ccc(/C=C/C(=O)NCc2ncc(-c3ccc(-c4ccc(C(=O)N5CC(F)(F)C5)cc4)cc3C(F)(F)F)o2)cn1        < 1000 nM
2  Cc1c(CNC(=O)/C=C/c2ccc(N)nc2)sc(-c2ccc(C3CC3C(=O)N3CC(F)C3)cc2C(F)(F)F)c1C (stereo not drawn)  1000 to 5000 nM
3  Nc1ccc(/C=C/C(=O)NCc2ccc(-c3ccc(-c4ccc(C(=O)N5CCC(F)(F)CC5)cn4)cc3C(F)(F)F)o2)cn1        < 1000 nM
4  Nc1ccc(/C=C/C(=O)NCc2cnc(-c3ccc(-c4ccc(C(=O)N5CC(F)(F)C5)cc4F)cc3C(F)(F)F)o2)cn1        < 1000 nM

IC50 reported for this molecule O=C(/C=C/c1cccnc1)NCc1ccc(-c2ccc(-c3ccc(C(=O)N4CCC(F)(F)CC4)cn3)cc2C(F)(F)F)o1 : < 1000 nM
